Target: TBPS site of GABA-A receptor
Assay: GABA-A receptor (TBPS site) binding assay, [35S]TBPS
Conditions: rat brain membranes, 2 nM [35S]TBPS
pIC50: −log10 of the molar value.
PARAMETER_MEASURED: pIC50

1) NC(=O)O[C@@H](Cn1nccn1)c1ccc(Cl)cc1Cl = 5.37
2) NC(=O)O[C@H](Cn1nccn1)c1ccc(Cl)cc1Cl = 3.97
3) NC(=O)O[C@@H](Cn1ncnn1)c1ccc(Cl)cc1Cl = 4.87

====

Biological target: rat dopamine transporter (Rattus norvegicus)
Construct: expressed in transfected cells
Sequence (P23977 whole entry): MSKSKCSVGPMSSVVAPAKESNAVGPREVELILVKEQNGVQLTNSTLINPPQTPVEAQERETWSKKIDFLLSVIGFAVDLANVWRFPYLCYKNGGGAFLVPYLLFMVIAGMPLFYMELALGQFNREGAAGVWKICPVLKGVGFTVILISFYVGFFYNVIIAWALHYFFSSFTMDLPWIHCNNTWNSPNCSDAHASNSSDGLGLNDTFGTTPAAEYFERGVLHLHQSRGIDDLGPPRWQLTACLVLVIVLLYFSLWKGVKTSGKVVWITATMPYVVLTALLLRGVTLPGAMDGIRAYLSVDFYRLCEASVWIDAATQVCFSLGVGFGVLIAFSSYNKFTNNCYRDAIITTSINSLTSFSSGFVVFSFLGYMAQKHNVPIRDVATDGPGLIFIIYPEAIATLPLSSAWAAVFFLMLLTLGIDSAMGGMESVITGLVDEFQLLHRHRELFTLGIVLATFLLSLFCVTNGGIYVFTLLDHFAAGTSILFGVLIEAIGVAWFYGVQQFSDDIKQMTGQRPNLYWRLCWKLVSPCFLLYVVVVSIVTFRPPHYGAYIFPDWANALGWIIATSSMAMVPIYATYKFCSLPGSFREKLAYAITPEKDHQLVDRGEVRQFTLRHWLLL
Assay: Dopamine transport (DAT) assay, [3H]dopamine uptake in CHO D8 cells
Format: cell-based
PARAMETER_MEASURED: inhibition at 10 µM (%)

1. NC(=O)O[C@H](Cn1ncnn1)c1ccc(Cl)c(Cl)c1 [Example 96] = 98.4
2. NC(=O)O[C@H](Cn1ncnn1)c1ccccc1Cl [Example 21] = 20.9
3. NC(=O)O[C@H](Cn1nccn1)c1ccc(Cl)c(Cl)c1 [Example 87] = 93.8
4. NC(=O)OC(Cn1nccn1)c1ccc(Cl)c(Cl)c1 (stereo not drawn) [Example 25] = 70.7
5. NC(=O)OC(Cn1nccn1)c1ccc(Cl)cc1Cl (stereo not drawn) [Example 29] = -27.5
6. NC(=O)OC(Cn1ncnn1)c1ccc(Cl)c(Cl)c1 (stereo not drawn) [Example 26] = 88.2
7. NC(=O)OC(Cn1ncnn1)c1ccc(Cl)cc1Cl (stereo not drawn) [Example 30] = 15.1
8. CNC(=O)O[C@@H](Cn1ncnn1)c1ccccc1Cl [Example 45] = -58.1
9. NC(=O)OC(Cn1nccn1)c1ccccc1 (stereo not drawn) [Example 7] = -21.1
10. NC(=O)OC(Cn1nccn1)c1ccccc1Cl (stereo not drawn) [Example 1] = 47.3
11. NC(=O)O[C@@H](Cn1ncnn1)c1ccccc1Cl [Example 20] = 7.1
12. NC(=O)OC(Cn1ncnn1)c1ccccc1 (stereo not drawn) [Example 4] = 41.5
